// B-score lookup, one value per entry
- system under test: ATP-sensitive inward rectifier potassium channel 1 (Homo sapiens) (UniProt P48048)
- Sequence (P48048 whole entry, looked up): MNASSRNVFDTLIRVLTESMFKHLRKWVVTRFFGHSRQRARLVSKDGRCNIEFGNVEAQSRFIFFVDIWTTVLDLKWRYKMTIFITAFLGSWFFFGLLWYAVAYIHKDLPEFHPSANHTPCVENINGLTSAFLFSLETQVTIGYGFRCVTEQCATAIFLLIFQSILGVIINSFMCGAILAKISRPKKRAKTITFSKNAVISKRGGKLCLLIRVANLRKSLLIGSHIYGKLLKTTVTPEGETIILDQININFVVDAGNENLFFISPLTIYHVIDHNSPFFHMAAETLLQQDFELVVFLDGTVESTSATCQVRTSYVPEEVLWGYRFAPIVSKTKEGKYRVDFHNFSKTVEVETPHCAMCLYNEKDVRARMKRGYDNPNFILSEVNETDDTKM
- assay details: ROMK potassium channel modulators, primary screen, cell-based, thallium flux, MLSMR library (AID 1918);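 further: B-score of the F/F0 ratio slope over 7 to 12 s after thallium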
- test parameters: Tet-inducible ROMK, thallium flux fluorescence; at 10 µM; actives lie on both sides
About 2,500 (1.9%) of roughly 130,000 compounds were called active. Only a selection was taken, and actives are over-represented in it overall.
A bare number is all that is needed in reply.

Reported B-score for CN1CCNC(=O)C1CC(=O)N1CC=C(c2ccc(F)cc2)CC1 (configuration not stated) : what is it?
-0.128

// query B-score value for entry COc1cccc(NCCC(=O)c2cccc([N+](=O)[O-])c2)c1
1.54

Need B-score, item COC(=O)CN1C(=O)N/C(=C/c2ccc(OC)c(C)c2OC)C1=O
1.31

Reported B-score for CN(C)c1cc(-c2ccc(F)cc2)oc(=O)c1Cl : what is it?
0.334

What measured B-score goes with CC(C)(C)NC(=O)NC(=O)COC(=O)Cc1c(F)cccc1Cl ?
-0.0671

Reported B-score for Cc1cc(C)c2[nH]c(=O)c(C(c3nnnn3Cc3ccc4c(c3)OCO4)N3CCCC3)cc2c1 (configuration not stated) : what is it?
-1.8

Requested field: B-score. Item: Cc1cc(NS(=O)(=O)c2ccc(NC(=O)c3cccc(OC(F)F)c3)cc2)nc(C)n1
0.878

I would be grateful if you could share the reported B-score for C=CCOC(=O)C1=C(C)N=C2SCCC(=O)N2C1/C=C/c1ccccc1OC (configuration not stated) .
-2.24

Looking for the measured B-score of CCC(c1nnnn1C1CCCC1)N(Cc1cccs1)Cc1cc2cccc(C)c2[nH]c1=O (configuration not stated) , can you help?
-3.89

Using the record for COc1ccc(NC(=O)COc2ccc(C(=O)OCC(=O)N(C)C3CCS(=O)(=O)C3)cc2OC)cc1 (configuration not stated) , report its B-score.
0.348

May I ask what B-score has been recorded for COc1ccc(CC(NC(C)=O)C(=O)NC2CCN(C(=O)c3ccc(OC)c(OC)c3)CC2)cc1OC (configuration not stated) ?
-0.592

Tell me the measured B-score of O=C(Cc1ccc(Br)cc1)N1CCN(c2ccccn2)CC1 , please.
-2.13
